Origin of measurements: patent US9181239B2

target: Wee1 kinase (Homo sapiens, UniProt P30291); construct: purchased Carnabio 05-177; assay: Wee1 time-resolved fluorescence equilibrium binding assay (probe displacement); conditions: GST-tagged-Wee1 kinase 2 nM, fluorescent probe 300 nM, 1 hour incubation; read-out: Wee-1 binding (Ki nM)
Sequence (P30291 whole entry): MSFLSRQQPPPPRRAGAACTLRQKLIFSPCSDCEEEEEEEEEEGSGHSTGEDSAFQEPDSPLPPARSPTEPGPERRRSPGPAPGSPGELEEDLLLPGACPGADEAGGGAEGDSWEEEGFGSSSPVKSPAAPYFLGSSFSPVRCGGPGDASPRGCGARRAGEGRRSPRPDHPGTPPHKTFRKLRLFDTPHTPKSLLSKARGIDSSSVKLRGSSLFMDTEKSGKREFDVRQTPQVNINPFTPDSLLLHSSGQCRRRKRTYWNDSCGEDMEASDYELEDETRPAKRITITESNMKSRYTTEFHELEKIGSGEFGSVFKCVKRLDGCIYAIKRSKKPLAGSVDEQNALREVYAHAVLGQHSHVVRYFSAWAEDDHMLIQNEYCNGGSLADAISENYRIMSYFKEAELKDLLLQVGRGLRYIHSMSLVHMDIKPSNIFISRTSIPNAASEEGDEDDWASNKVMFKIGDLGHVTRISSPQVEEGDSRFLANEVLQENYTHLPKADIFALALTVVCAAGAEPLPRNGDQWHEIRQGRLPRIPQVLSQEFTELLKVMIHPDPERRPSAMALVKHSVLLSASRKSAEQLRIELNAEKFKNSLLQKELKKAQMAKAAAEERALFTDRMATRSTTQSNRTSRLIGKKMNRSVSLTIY
Measured Ki values are reported for all entries that follow.
attribute_measured: Ki (nM)

>>> print(df.to_string())
                                    compound  data_value
 0   Cn1cc(-c2c(Cl)cccc2Cl)c(=O)c2cnc(N)nc21         180
 1  Cn1cc(-c2c(F)cccc2Cl)c(=O)c2cnc(Nc3ccc4c(c3)CCNC4)nc21         1.3
 2  CN1Cc2cc(Nc3ncc4c(=O)c(-c5c(Cl)cccc5Cl)cn(C5CC5)c4n3)ccc2C(C)(C)C1         0.8
 3  CN1CCN(c2ccc(Nc3ncc4c(=O)c(-c5ccccc5Cl)cn(C)c4n3)cc2)CC1         3.7
 4  CN(C)CCN1CCN(c2ccc(Nc3ncc4c(=O)c(-c5c(Cl)cccc5Cl)cn(C)c4n3)cc2)CC1         0.8
 5  CN1Cc2cc(Nc3ncc4c(=O)c(-c5c(Cl)cccc5Cl)cn(C)c4n3)ccc2C1(C)C         0.2
 6  CN(C)CCn1cc(-c2c(Cl)cccc2Cl)c(=O)c2cnc(Nc3ccc(N4CCN(C)CC4)cc3)nc21          24
 7  Cn1cc(-c2c(Cl)cccc2Cl)c(=O)c2cnc(Nc3ccc4c(c3)CNCC4)nc21         0.4
 8  Cn1cc(-c2c(Cl)cccc2Cl)c(=O)c2cnc(Nc3ccc(N[C@H]4CC[C@@H](N(C)C)CC4)cc3)nc21         0.5
 9  COC(=O)c1cc(Nc2ncc3c(=O)c(-c4c(Cl)cccc4Cl)cn(C)c3n2)ccc1N1CCN(C)CC1         0.7
10  Cn1cc(-c2c(Cl)cccc2Cl)c(=O)c2cnc(Nc3ccc4c(c3)CNC4(C)C)nc21         0.3
11  Cn1cc(-c2c(Cl)cccc2Cl)c(=O)c2cnc(Nc3ccc4c(c3)CC(N3CCCC3)C4)nc21 (stereo not drawn)         0.4
12  CN(C)C1CCN(c2ccc(Nc3ncc4c(=O)c(-c5c(Cl)cccc5Cl)cn(C)c4n3)cc2)CC1         0.5
13  CCn1cc(-c2c(Cl)cccc2Cl)c(=O)c2cnc(Nc3ccc4c(c3)CN(C)CC43CC3)nc21         0.3
14  COc1ccc(Cn2cc(-c3c(F)cccc3Cl)c(=O)c3cnc(Nc4ccc(N5CCN(C)CC5)cc4)nc32)cc1          66
15  Cn1cc(-c2c(Cl)cccc2Cl)c(=O)c2cnc(Nc3ccc4c(c3)CCNC4)nc21         1.1
16  CN1CCN(c2ccc(Nc3ncc4c(=O)c(-c5c(Cl)cccc5Cl)cn(C5COC5)c4n3)cc2)CC1         1.3
17  CN1CCN(c2ccc(Nc3ncc4c(=O)c(-c5c(F)cccc5Cl)c[nH]c4n3)cc2)CC1         2.4
18  O=c1c(-c2c(Cl)cccc2Cl)c[nH]c2nc(Nc3ccc4c(c3)CNCC43CC3)ncc12         0.3
19  Cn1cc(-c2c(Cl)cccc2Cl)c(=O)c2cnc(Nc3ccc(N[C@H]4CC[C@H](N(C)C)CC4)cc3)nc21         0.7
20  CN1CCC(Nc2ccc(Nc3ncc4c(=O)c(-c5c(F)cccc5Cl)cn(C)c4n3)cc2)CC1           3
21  COc1ccc(Cn2cc(-c3c(Cl)cccc3Cl)c(=O)c3cnc(Nc4ccc5c(c4)CN(C)CC54CC4)nc32)cc1         6.4
22  CN1Cc2cc(Nc3ncc4c(=O)c(-c5c(Cl)cccc5Cl)cn(C5CC5)c4n3)ccc2C2(CC2)C1         0.2
23  CN1CCN(c2ccc(Nc3ncc4c(=O)c(-c5c(Cl)cccc5Cl)cn(Cc5ccncc5)c4n3)cc2)CC1          14
24  CCn1cc(-c2c(Cl)cccc2Cl)c(=O)c2cnc(Nc3ccc(N4CCN(C)CC4)cc3)nc21         0.6
25  CN1CCN(c2ccc(Nc3ncc4c(=O)c(-c5c(Cl)cccc5Cl)cn(-c5ccccc5)c4n3)cc2)CC1         0.1
26  CN1CCN(c2ccc(Nc3ncc4c(=O)c(-c5c(Cl)cccc5Cl)cn(CC(C)(C)O)c4n3)cc2)CC1          20
27  CN1CCN(c2ccc(Nc3ncc4c(=O)c(-c5c(Cl)cccc5Cl)cn(C)c4n3)cc2)CC1         0.3
28  CN1CCN(c2ncc(Nc3ncc4c(=O)c(-c5c(Cl)cccc5Cl)cn(C)c4n3)cn2)CC1          18
29  O=c1c(-c2c(Cl)cccc2Cl)cn(C2CC2)c2nc(Nc3ccc4c(c3)CNCC43CC3)ncc12         0.8
